Target: DNA primase (Mycobacterium tuberculosis (strain CDC 1551 / Oshkosh))
Sequence (P9WNW0 whole entry): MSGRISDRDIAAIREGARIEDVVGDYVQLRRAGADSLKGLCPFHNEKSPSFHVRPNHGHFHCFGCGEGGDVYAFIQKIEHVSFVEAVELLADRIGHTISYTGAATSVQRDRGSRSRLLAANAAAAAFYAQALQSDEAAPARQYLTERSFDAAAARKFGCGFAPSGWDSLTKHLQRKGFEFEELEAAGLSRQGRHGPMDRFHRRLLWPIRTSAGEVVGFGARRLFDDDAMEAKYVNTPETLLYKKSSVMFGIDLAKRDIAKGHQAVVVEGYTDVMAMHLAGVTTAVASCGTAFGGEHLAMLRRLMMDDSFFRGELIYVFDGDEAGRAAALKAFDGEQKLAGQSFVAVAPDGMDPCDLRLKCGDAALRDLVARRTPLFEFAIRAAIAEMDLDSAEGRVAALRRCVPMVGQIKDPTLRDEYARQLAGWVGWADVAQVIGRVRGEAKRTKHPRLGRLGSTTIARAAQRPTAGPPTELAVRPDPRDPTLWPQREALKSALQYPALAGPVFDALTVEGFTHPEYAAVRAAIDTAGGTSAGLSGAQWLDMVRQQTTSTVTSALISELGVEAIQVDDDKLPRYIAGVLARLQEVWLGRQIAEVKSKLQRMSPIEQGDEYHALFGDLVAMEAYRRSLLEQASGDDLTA
Assay: Quatitative Inhibition Analysis Assay
Settings: pH 8.8
Consider the following compounds; for each one, report its pIC50.
Please note pIC50 is a logarithmic value: minus log10 of concentration in mol/L. Answer with that number alone.

Param item = `COc1cccc2c1C(=O)c1c(O)c3c(c(O)c1C2=O)C[C@@](O)(C(=O)CO)C[C@@H]3O[C@H]1C[C@H](N)[C@H](O)[C@H](C)O1` ; retrieve measured pIC50.
5.03

Param item = `CCN(CC)CCOc1ccc2c(c1)C(=O)c1cc(OCCN(CC)CC)ccc1-2` ; retrieve measured pIC50.
4.16

====

Molecular target: DNA primase (Bacillus anthracis, UniProt A0A6L8PXB3)
Sequence (A0A6L8PXB3 whole entry): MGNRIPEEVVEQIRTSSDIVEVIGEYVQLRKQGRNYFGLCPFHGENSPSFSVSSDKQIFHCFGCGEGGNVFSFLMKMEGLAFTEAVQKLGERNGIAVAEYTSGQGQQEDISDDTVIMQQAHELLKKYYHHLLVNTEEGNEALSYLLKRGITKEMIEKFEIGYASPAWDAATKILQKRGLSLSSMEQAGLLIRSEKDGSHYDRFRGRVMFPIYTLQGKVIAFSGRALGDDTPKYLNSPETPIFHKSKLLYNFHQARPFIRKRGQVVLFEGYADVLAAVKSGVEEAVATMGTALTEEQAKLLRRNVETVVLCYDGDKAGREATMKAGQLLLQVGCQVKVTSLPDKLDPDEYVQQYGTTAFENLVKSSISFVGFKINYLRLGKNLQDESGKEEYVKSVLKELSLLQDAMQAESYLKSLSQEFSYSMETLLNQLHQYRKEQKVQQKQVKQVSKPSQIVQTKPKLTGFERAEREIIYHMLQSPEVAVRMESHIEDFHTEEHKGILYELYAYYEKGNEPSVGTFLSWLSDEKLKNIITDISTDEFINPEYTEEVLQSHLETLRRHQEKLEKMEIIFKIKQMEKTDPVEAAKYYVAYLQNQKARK
Consider the following compounds; for each one, report its IC50.
// note: answer is a bare numeric in µM

Param item = `CCN(CC)CCOc1ccc2c(c1)C(=O)c1cc(OCCN(CC)CC)ccc1-2` ; retrieve measured IC50.
7.1

Param item = Cc1ccc(C(=O)Nc2ccc(S(=O)(=O)O)c3cc(S(=O)(=O)O)cc(S(=O)(=O)O)c23)cc1NC(=O)c1cccc(NC(=O)Nc2cccc(C(=O)Nc3cc(C(=O)Nc4ccc(S(=O)(=O)O)c5cc(S(=O)(=O)O)cc(S(=O)(=O)O)c45)ccc3C)c2)c1 [Suramin hexasodium] ; retrieve measured IC50.
8.2

Param item = `COc1cccc2c1C(=O)c1c(O)c3c(c(O)c1C2=O)C[C@@](O)(C(=O)CO)C[C@@H]3O[C@H]1C[C@H](N)[C@H](O)[C@H](C)O1` ; retrieve measured IC50.
4.4

Param item = `C[C@H]1COc2c(N3CCN(C)CC3)c(F)cc3c(=O)c(C(=O)O)cn1c23` ; retrieve measured IC50.
75

Value source: BindingDB's records for doi:10.1021/bi4011286
